B1: ZNF8 (parent)
chain: RIHTGERPYMCKECGKAFSQNSSL

Variants of: B1
Experiment: protein stability index of a GFP-peptide fusion (GPS, HEK-293T) (PSI 1-6); higher = more stable;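 also: lentivirally expressed fusions sorted by FACS into six bins by GFP to DsRed ratio, PSI derived from sequencing read proportions per bin multiplied by bin number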
Conditions: c terminus: a fixed tail appended
Collected protein stability index values appear next to each entry.

{"item-sequence": "RIHTGERPMMCKECGKAFSQNSSL", "protein stability index": 2.6}
{"item-sequence": "RIHTGERPYMCKECGKAFSQNSSE", "protein stability index": 3.68}
{"item-sequence": "RIHTGERPYMCPECGKAFSQNSSL", "protein stability index": 2.54}
{"item-sequence": "RIHTGERPYMCKECYKAFSQNSSL", "protein stability index": 1.62}
{"item-sequence": "RMHTGERPYMCKECGKAFSQNSSL", "protein stability index": 2.44}
{"item-sequence": "RIHTGERFYMCKECGKAFSQNSSL", "protein stability index": 2.28}
{"item-sequence": "RIHTGERPYMCKECGKAESQNSSL", "protein stability index": 3.64}
{"item-sequence": "RIHTGERPYMCKECGKAFSQNSSD", "protein stability index": 3.56}
{"item-sequence": "RIHTGELPYMCKECGKAFSQNSSL", "protein stability index": 2.65}
{"item-sequence": "RIHTGEQPYMCKECGKAFSQNSSL", "protein stability index": 3.2}
{"item-sequence": "RHHTGERPYMCKECGKAFSQNSSL", "protein stability index": 2.38}
{"item-sequence": "RIHTGERPYMCKECGKAFMQNSSL", "protein stability index": 2.24}
{"item-sequence": "RIHTGERPYMCKECGCAFSQNSSL", "protein stability index": 1.82}
